Molecular target: sheep Cyclooxygenase-1 (Cox1), PTGS1 (gene 443551)
Test: NVS_ENZ_oCOX1: NovaScreen (NVS) Enzymatic Assay for sheep Cyclooxygenase-1 (Cox1) (AID 2283239);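 note: actives reduce cyclooxygenase activity so potencies are for inhibitors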
Experimental: NVS_ENZ_oCOX1 is a biochemical, single-readout assay that uses extracted gene-proteins from Ovine seminal vesicles in a tissue-based cell-free assay. Measurements were taken 0.66 hour after chemical dosing in a 96-well plate.NVS_ENZ_oCOX1 is one of one assay component(s) measured or calculated from the NVS_ENZ_oCOX1 assay. […] This assay endpoint, NVS_ENZ_oCOX1, was analyzed in the positive analysis fitting direction relative to DMSO as the negative control and baseline of activity. […]
Results filed as inconclusive are left out. Active and inactive are the calls of the source. Rule for the calls: active = hit-call score of the fitted dose curve at least 0.9, where 1 is the maximum; inconclusive = response in the unintended direction; inactive = score below 0.9.
Outcome codes: 1.0 (active), 0.0 (inactive)

{"Compound": "CCN1CCC2(CC1)COc1cc3c(cc12)N(C(=O)c1ccc(-c2ccc(-c4nnc(C)o4)cc2C)cc1)CC3", "Assigned category": 1.0}
{"Compound": "Clc1ccc(C2(Cn3cncn3)CC(Br)CO2)c(Cl)c1 (centres undefined)", "Assigned category": 0.0}
{"Compound": "Oc1ccc(-c2ccccc2)cc1", "Assigned category": 0.0}
{"Compound": "O=[N+]([O-])c1ccc2c3c(cccc13)CC2", "Assigned category": 1.0}

----------
read-out: Collagen III, COL3A1 (gene 1281); test: BSK_MyoF_CollagenIII: BioMAP Diversity Plus: MyoF Assay for Collagen III Biomarker Activity (AID 2284239); conditions: primary human lung fibroblasts
Calls of active or inactive are those of the source. How the source made its calls: active means hit-call score of the fitted dose curve at least 0.9, where 1 is the maximum; inactive means score below 0.9.
Outcome codes: yes (1) for active, no (0) for inactive

{"Compound": "COP(=S)(OC)Oc1c(Cl)cc(C)cc1Cl", "Assigned category": "no (0)"}
{"Compound": "CC(=O)C(Cl)C(=O)N(C)C (stereo not given)", "Assigned category": "no (0)"}
{"Compound": "COP(=S)(OC)Oc1ccc(Sc2ccc(OP(=S)(OC)OC)cc2)cc1", "Assigned category": "yes (1)"}
{"Compound": "NC(=S)Nc1ccccc1", "Assigned category": "no (0)"}
{"Compound": "CCOP(=S)(OCC)Oc1ccc(S(C)=O)cc1 (stereo not given)", "Assigned category": "no (0)"}

----------
experiment: APR_HepG2_P-H2AX_24hr: Apredica 24-hour HepG2 Assay for H2AX Phosphorylation (AID 2282920); details: high-content imaging, actives raise or lower the signal
Calls of active or inactive are those of the source. Rule for the calls: active = hit-call score of the fitted dose curve at least 0.9, where 1 is the maximum; inactive = score below 0.9.

{"Smiles structure": "Oc1cccc2cccnc12", "AC50": "inactive"}
{"Smiles structure": "CC(C)(c1ccccc1)c1ccc(O)c(C(C)(C)c2ccccc2)c1", "AC50": "69.5 µM (active)"}
{"Smiles structure": "ClCC(Cl)CCl", "AC50": "inactive"}
{"Smiles structure": "Cn1sc(Cl)cc1=O", "AC50": "110 µM (active)"}
{"Smiles structure": "CC(C)(C)CC(C)(C)c1ccc(O)cc1", "AC50": "inactive"}
{"Smiles structure": "C=CC(=O)OCCCCCC(C)C", "AC50": "inactive"}
{"Smiles structure": "O=c1[nH]c(=O)[nH]c(=O)[nH]1", "AC50": "inactive"}

----------
test: ACEA_AR_agonist_AUC_viability: ACEA Biosciences xCELLigence Real-Time Cell Analysis on Androgen Receptor Agonism for Viability (AID 2283775)
Records with an inconclusive call do not appear. Active and inactive are the calls of the source. How the source made its calls: active means hit-call score of the fitted dose curve at least 0.9, where 1 is the maximum; inconclusive means response in the unintended direction; inactive means score below 0.9.
Outcome codes: active, inactive

{"Compound": "Oc1ccc(-c2ccccc2)cc1", "Assigned category": "inactive"}
{"Compound": "[O-][Cl+2]([O-])O", "Assigned category": "inactive"}
{"Compound": "CC(C)(C)c1cc(O)ccc1O", "Assigned category": "active"}
{"Compound": "CCN1CCC2(CC1)COc1cc3c(cc12)N(C(=O)c1ccc(-c2ccc(-c4nnc(C)o4)cc2C)cc1)CC3", "Assigned category": "active"}
{"Compound": "O=C(O)C(F)(F)C(F)(F)C(F)(F)C(F)(F)C(F)(F)C(F)(F)C(F)(F)C(F)(F)C(F)(F)C(F)(F)F", "Assigned category": "active"}
{"Compound": "CC1(C)Cc2cccc(O)c2O1", "Assigned category": "inactive"}
{"Compound": "Cl/C=C\\C[N+]12CN3CN(CN(C3)C1)C2", "Assigned category": "inactive"}
{"Compound": "O=C1C(Cl)=C(Cl)C(=O)c2ccccc21", "Assigned category": "inactive"}
{"Compound": "CC1(C)CCC(Cc2ccc(Cl)cc2)C1(O)Cn1cncn1 (stereo not given)", "Assigned category": "inactive"}
{"Compound": "O=C(Nc1ccc2[nH]ccc2c1)c1cc2cc(F)ccc2n1Cc1cccc(F)c1", "Assigned category": "active"}

----------
assay: BSK_3C_uPAR: BioMAP Diversity Plus: 3C Assay for Urokinase-type plasminogen activator receptor (uPAR) Biomarker Activity (AID 2282998); conditions: BioMAP 3C HUVEC, uPAR biomarker ELISA; actives raise or lower the signal
Active and inactive are the calls of the source. The calls were made as follows: active = hit-call score of the fitted dose curve at least 0.9, where 1 is the maximum; inactive = score below 0.9.
Outcome codes: active, inactive

{"Compound": "CC(C)(C)CC(C)(C)c1ccc(O)cc1", "Assigned category": "active"}
{"Compound": "Oc1cccc2cccnc12", "Assigned category": "inactive"}
{"Compound": "CCC(=O)C(CC(C)N(C)C)(c1ccccc1)c1ccccc1 (centres undefined)", "Assigned category": "inactive"}
{"Compound": "C=CC(=O)OCCCCCC(C)C", "Assigned category": "inactive"}
{"Compound": "Cn1sc(Cl)cc1=O", "Assigned category": "inactive"}
{"Compound": "CC1(C)Cc2cccc(O)c2O1", "Assigned category": "inactive"}
{"Compound": "C[C@@H]1C[C@@H]([C@H](O)CC2CC(=O)NC(=O)C2)C(=O)[C@@H](C)C1", "Assigned category": "active"}
{"Compound": "COC(=O)c1sccc1S(=O)(=O)NC(=O)Nc1nc(C)nc(OC)n1", "Assigned category": "inactive"}
{"Compound": "COC(=O)Cc1ccccc1", "Assigned category": "inactive"}

----------
read-out: Interleukin-1 alpha (IL1a), IL1A (gene 3552); assay: BSK_KF3CT_IL1a: BioMAP Diversity Plus: KF3CT Assay for Interleukin-1 alpha (IL1a) Biomarker Activity (AID 2283070); details: primary human keratinocytes with fibroblasts; actives raise or lower the signal
Activity calls are given as the source filed them. The calls were made as follows: active = hit-call score of the fitted dose curve at least 0.9, where 1 is the maximum; inactive = score below 0.9.
Assay metric: AC50

{"Molecule": "O=C(O)C(Cl)(Cl)Cl", "Assay metric": "AC50", "Reported measurement": "inactive"}
{"Molecule": "C(=NC1CCCCC1)=NC1CCCCC1", "Assay metric": "AC50", "Reported measurement": "17.2 µM (active)"}
{"Molecule": "CCOP(=S)(OCC)Oc1ccc(S(C)=O)cc1 (stereo unspecified)", "Assay metric": "AC50", "Reported measurement": "inactive"}
{"Molecule": "CCNc1nc(NC(C)(C)C)nc(SC)n1", "Assay metric": "AC50", "Reported measurement": "20 µM (active)"}
{"Molecule": "O=C(O)CCC(F)(C(F)(F)F)C(F)(F)F", "Assay metric": "AC50", "Reported measurement": "inactive"}
{"Molecule": "C[C@]12CCC(=O)C[C@@H]1CC[C@@H]1[C@@H]2CC[C@]2(C)[C@@H](O)CC[C@@H]12", "Assay metric": "AC50", "Reported measurement": "inactive"}
{"Molecule": "CN(C)N=O", "Assay metric": "AC50", "Reported measurement": "inactive"}
{"Molecule": "O=C(O)C(F)(F)C(F)(F)C(F)(F)C(F)(F)C(F)(F)C(F)(F)F", "Assay metric": "AC50", "Reported measurement": "inactive"}
{"Molecule": "NC(=S)Nc1ccccc1", "Assay metric": "AC50", "Reported measurement": "inactive"}
{"Molecule": "OCc1ccco1", "Assay metric": "AC50", "Reported measurement": "inactive"}
{"Molecule": "CC12CC1(C)C(=O)N(c1cc(Cl)cc(Cl)c1)C2=O (stereo unspecified)", "Assay metric": "AC50", "Reported measurement": "inactive"}
{"Molecule": "CC(=O)C(Cl)C(=O)N(C)C (stereo unspecified)", "Assay metric": "AC50", "Reported measurement": "13.9 µM (active)"}
{"Molecule": "O=[N+]([O-])c1ccc2c3c(cccc13)CC2", "Assay metric": "AC50", "Reported measurement": "inactive"}
{"Molecule": "CC(C)c1ccc(CO)cc1", "Assay metric": "AC50", "Reported measurement": "inactive"}
{"Molecule": "COP(=S)(OC)Oc1ccc(Sc2ccc(OP(=S)(OC)OC)cc2)cc1", "Assay metric": "AC50", "Reported measurement": "inactive"}
{"Molecule": "CCCCC(CC)CO[N+](=O)[O-] (stereo unspecified)", "Assay metric": "AC50", "Reported measurement": "inactive"}

----------
molecular target: human Peroxisome Proliferator-activated Receptor delta (PPARd), PPARD (gene 5467); test: ATG_PPARd_TRANS: Attagene TRANS-FACTORIAL HepG2 Assay for human Peroxisome Proliferator-activated Receptor delta (PPARd) (AID 2283002)
Results filed as inconclusive are left out. Active and inactive are the calls of the source. Rule for the calls: active = hit-call score of the fitted dose curve at least 0.9, where 1 is the maximum; inconclusive = response in the unintended direction; inactive = score below 0.9.
Outcome codes: active, inactive

{"Compound": "CCCCCCCCSC(=O)Oc1cc(Cl)nnc1-c1ccccc1", "Assigned category": "inactive"}
{"Compound": "CC(=O)[O][Hg][c]1ccccc1", "Assigned category": "inactive"}
{"Compound": "CCOP(=O)(CN(CCO)CCO)OCC", "Assigned category": "inactive"}
{"Compound": "C=CC(=O)OCCCCCC(C)C", "Assigned category": "inactive"}
{"Compound": "BrCCBr", "Assigned category": "inactive"}
{"Compound": "CC(C#N)CCC#N (stereo not given)", "Assigned category": "inactive"}
{"Compound": "OCC(O)CCl (stereo not given)", "Assigned category": "inactive"}
{"Compound": "O=c1[nH]c(=O)[nH]c(=O)[nH]1", "Assigned category": "inactive"}
{"Compound": "N#CCc1ccc(Cl)cc1", "Assigned category": "inactive"}
{"Compound": "ClCc1cccnc1", "Assigned category": "inactive"}
{"Compound": "CN(CCCC(=O)c1cccnc1)N=O", "Assigned category": "inactive"}
{"Compound": "CC(Br)C(=O)O (stereo not given)", "Assigned category": "inactive"}
{"Compound": "CCOP(=S)(OCC)Oc1nc(Cl)c(Cl)cc1Cl", "Assigned category": "inactive"}
{"Compound": "C[C@@H]1C[C@@H]([C@H](O)CC2CC(=O)NC(=O)C2)C(=O)[C@@H](C)C1", "Assigned category": "inactive"}
{"Compound": "Cc1ccc2ccccc2c1C", "Assigned category": "inactive"}
{"Compound": "CCN(CC)C(=O)Cl", "Assigned category": "inactive"}
{"Compound": "CCC(C)(C)c1ccc(O)c(C(C)(C)CC)c1", "Assigned category": "active"}
{"Compound": "CC12CC1(C)C(=O)N(c1cc(Cl)cc(Cl)c1)C2=O (stereo not given)", "Assigned category": "inactive"}
{"Compound": "CCCCP(CCCC)CCCC", "Assigned category": "inactive"}
{"Compound": "O=P(O)(O)CN(CP(=O)(O)O)CP(=O)(O)O", "Assigned category": "inactive"}
{"Compound": "C=CC(=O)N(C)C", "Assigned category": "inactive"}
{"Compound": "CCN1CCC2(CC1)COc1cc3c(cc12)N(C(=O)c1ccc(-c2ccc(-c4nnc(C)o4)cc2C)cc1)CC3", "Assigned category": "inactive"}
{"Compound": "COc1cc(-c2ccc(N)c(OC)c2)ccc1N", "Assigned category": "inactive"}
{"Compound": "C=C(C)C(=O)[O][Sn]([CH2]CCC)([CH2]CCC)[CH2]CCC", "Assigned category": "inactive"}
{"Compound": "NC(=S)Nc1ccccc1", "Assigned category": "inactive"}
